Entries annotated with measured inhibition
Biological target: Integrin beta-1 (Homo sapiens) + Integrin alpha-4 (Homo sapiens) (UniProt P13612+P05556)
Sequence (P05556 whole entry, looked up): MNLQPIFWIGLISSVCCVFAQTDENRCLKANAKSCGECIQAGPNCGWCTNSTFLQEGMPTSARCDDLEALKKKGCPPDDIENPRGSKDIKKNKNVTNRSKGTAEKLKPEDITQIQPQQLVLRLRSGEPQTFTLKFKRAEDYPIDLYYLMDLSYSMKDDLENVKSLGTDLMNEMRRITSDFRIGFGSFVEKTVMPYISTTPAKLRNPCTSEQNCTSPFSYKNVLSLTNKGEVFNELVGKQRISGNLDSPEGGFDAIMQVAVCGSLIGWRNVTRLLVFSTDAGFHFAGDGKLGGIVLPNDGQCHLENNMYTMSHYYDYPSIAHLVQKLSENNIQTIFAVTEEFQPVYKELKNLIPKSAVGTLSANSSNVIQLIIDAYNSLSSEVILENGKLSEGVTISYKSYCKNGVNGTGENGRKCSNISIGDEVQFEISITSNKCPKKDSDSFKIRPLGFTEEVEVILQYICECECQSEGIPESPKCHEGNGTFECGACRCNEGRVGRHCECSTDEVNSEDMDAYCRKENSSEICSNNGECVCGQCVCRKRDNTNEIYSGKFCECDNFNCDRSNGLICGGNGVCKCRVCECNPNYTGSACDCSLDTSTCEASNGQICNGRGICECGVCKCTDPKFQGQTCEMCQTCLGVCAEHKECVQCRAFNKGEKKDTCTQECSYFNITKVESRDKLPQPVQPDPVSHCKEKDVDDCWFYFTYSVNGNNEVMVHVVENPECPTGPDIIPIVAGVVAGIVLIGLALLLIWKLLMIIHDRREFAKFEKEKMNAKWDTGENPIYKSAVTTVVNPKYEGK
Sequence (P13612 whole entry, looked up): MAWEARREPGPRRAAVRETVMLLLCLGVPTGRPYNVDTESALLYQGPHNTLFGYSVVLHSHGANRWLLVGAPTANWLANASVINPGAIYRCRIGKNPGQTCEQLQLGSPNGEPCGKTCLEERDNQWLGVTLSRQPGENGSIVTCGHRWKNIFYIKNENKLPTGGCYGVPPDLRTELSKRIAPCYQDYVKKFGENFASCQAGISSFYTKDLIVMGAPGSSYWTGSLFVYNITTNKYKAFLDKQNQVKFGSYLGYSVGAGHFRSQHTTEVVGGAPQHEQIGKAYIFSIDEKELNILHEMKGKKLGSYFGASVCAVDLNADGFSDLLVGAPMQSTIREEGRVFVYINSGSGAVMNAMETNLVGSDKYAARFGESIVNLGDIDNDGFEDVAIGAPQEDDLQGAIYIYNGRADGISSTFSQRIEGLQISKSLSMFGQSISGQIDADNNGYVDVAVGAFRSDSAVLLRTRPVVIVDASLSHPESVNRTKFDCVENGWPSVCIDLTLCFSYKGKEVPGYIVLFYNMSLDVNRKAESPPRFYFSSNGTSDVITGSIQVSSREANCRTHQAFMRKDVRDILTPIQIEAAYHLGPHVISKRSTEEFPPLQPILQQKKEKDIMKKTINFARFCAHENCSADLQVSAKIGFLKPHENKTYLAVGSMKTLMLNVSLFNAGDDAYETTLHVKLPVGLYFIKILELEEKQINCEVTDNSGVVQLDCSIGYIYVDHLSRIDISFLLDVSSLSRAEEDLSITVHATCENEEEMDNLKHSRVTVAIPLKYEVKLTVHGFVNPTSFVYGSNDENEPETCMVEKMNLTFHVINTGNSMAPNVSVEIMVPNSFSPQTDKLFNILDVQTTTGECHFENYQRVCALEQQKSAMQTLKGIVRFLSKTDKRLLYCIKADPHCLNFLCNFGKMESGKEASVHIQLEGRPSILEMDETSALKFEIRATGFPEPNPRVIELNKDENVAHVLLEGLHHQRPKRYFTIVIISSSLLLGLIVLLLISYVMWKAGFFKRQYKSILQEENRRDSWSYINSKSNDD
Assay: alpha4beta1 integrin LIBS antibody binding reduction – U937 cells, HUTS-21 mAb, flow cytometry, validation set, VLA-4 allosteric modulator project, pilot screen (AID 2674);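 further: antibody binding induced by the VLA-4 ligand LDV present at three times its Kd; 0% = LDV ligand with antibody and no compound and 100% = antibody without LDV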
Details: HUTS-21 LIBS mAb binding, at 6.7 µM, hits give high values, binding induced by LDV ligand
Number in %, nothing else.

Here is how some molecules turned out for inhibition.
CCN(CC)C(=O)c1sc(NC(=O)c2c(OC)cccc2OC)c(C#N)c1C | 1.59
O=c1nc2sc3ccccc3n2c(=O)n1-c1ccc(Cl)cc1 | -12.9
CC(CCc1ccccc1)NC(=O)/C=C/c1ccccc1 (stereo unspecified) | 1.61

QUERY: Name the recorded inhibition for Cc1ccc(-n2cc(CNCCN3CCOC3=O)c(-c3ccc(F)cc3)n2)cc1 .
RESULT: 9.63

QUERY: Name the recorded inhibition for CC(C)(C)C(=O)NCCCNc1ccc([N+](=O)[O-])cc1 .
RESULT: 5.49

QUERY: Name the recorded inhibition for O=C1OC(c2ccccc2)=C/C1=C/c1cccs1 .
RESULT: -2.53

QUERY: Name the recorded inhibition for COc1ccc(CNC(=O)C2CCCN2C)cc1OC (stereo unspecified) .
RESULT: 1.59

QUERY: Name the recorded inhibition for CCCC(=O)O[C@]1(C(=O)CCl)[C@@H](C)C[C@H]2[C@@H]3CCC4=CC(=O)C=C[C@]4(C)[C@@]3(F)C(=O)C[C@@]21C .
RESULT: 1.61
